- experimental target: human ether-à-go-go-related gene (hERG) potassium channel (human)
- experiment notes: primary screen, population patch clamp on CHO cells stably expressing hERG; higher = less effect of the substance
Among all 310,000 compounds or so, about 2,200 (0.71%) showed an effect of 50% or more. The effect is printed as a negative number. What follows is part of a selection rich in strong results, with near analogues and random picks from the rest.
Catalogue of compounds with associated hERG current change (%, negative = inhibition) at 1uM
Only the number, expressed in %, is required.

Would you please look over these solved cases?
COc1ccccc1CC(=O)N1CCN(c2ccc([N+](=O)[O-])cc2)CC1 :: -8.15
CCOC(=O)c1c(NC(=S)Nc2ccc(Cl)cc2)sc2c1CCN(C)C2 :: -57.4
COc1ccc(CCC(=O)N2CCN(c3ccc([N+](=O)[O-])cc3)CC2)cc1OC :: -76.1
CC(C)C[C@H]1CN=C(Nc2ccccc2)N1CCC(C)c1ccccc1 (stereo partly drawn) :: -8.04
Cc1cccc2sc(N(CCCN(C)C)C(=O)c3ccco3)nc12.Cl :: -54.8

q: Fill blank: measured hERG current change (%, negative = inhibition) at 1uM of the compound `COc1ccc(CC2(CO)CCN(C/C=C/c3ccccc3OC)CC2)cc1` is ____.
a: -71.4

q: Fill blank: measured hERG current change (%, negative = inhibition) at 1uM of the compound COc1ccc(/C=C/CN2CCCC(CO)(Cc3cccc(Cl)c3)C2)cc1 (stereo not drawn) is ____.
a: 3.25

---

Catalogue of compounds with associated hERG current change (%, negative = inhibition) at 1uM
- experimental target: human ether-à-go-go-related gene (hERG) potassium channel (human)
- experiment notes: primary screen, population patch clamp on CHO cells stably expressing hERG; higher = less effect of the substance
The whole screen tested about 310,000 compounds, of which about 2,200 (0.71%) showed an effect of 50% or more. The effect is printed as a negative number. Only a selection was taken, and strong results are over-represented in it overall.
Only the number, expressed in %, is required.

Would you please look over these solved cases?
O=S(=O)(c1cccc(Br)c1)N1CCN(c2ccnc3cc(Cl)ccc23)CC1 :: 10.2
Clc1ccc2c(N3CCNCC3)ccnc2c1 :: -15.4
O=S(=O)(c1ccccc1)N1CCN(c2ccnc3cc(Cl)ccc23)CC1 :: -79.9
Cc1cc(C)c(-c2cc(C(F)(F)F)no2)c(=O)[nH]1 :: 12.2
Cc1ccc(-c2nc(CS(=O)CC(=O)N3CCC4(CC3)OCCO4)c(C)o2)cc1 (stereo not shown) :: -3.05

q: Fill blank: measured hERG current change (%, negative = inhibition) at 1uM of the compound `C[C@@H]1CC=C[C@H]2[C@H]1C(=O)N(Cc1ccccc1)[C@H]2c1ccc(-c2ccoc2)cc1F` is ____.
a: 17.9

q: Fill blank: measured hERG current change (%, negative = inhibition) at 1uM of the compound `Nc1c2c(nc3ccn(-c4ccccc4)c(=O)c13)CCCCC2` is ____.
a: -37.1

q: Fill blank: measured hERG current change (%, negative = inhibition) at 1uM of the compound `CCN1CCN(S(=O)(=O)c2cc(OC)ccc2OC)CC1` is ____.
a: 19

q: Fill blank: measured hERG current change (%, negative = inhibition) at 1uM of the compound `O=C(NCCS(=O)(=O)NCc1ccccn1)c1ccccc1` is ____.
a: 8.81

q: Fill blank: measured hERG current change (%, negative = inhibition) at 1uM of the compound `COC(=O)c1cc2c(ccn2-c2ccc(F)cc2)n1Cc1ccc(OC)cc1` is ____.
a: 0.901

---

- experimental target: human ether-à-go-go-related gene (hERG) potassium channel (human)
- experiment notes: primary screen, population patch clamp on CHO cells stably expressing hERG; higher = less effect of the substance
Among all 310,000 compounds or so, about 2,200 (0.71%) showed an effect of 50% or more. The effect is printed as a negative number. This is one part of a sample in which strong results are shown more often than they occur.
readout type: hERG current change (%, negative = inhibition) at 1uM (%)
Only the number, expressed in %, is required.

CC1CCN(CCc2nc3cc(NC(=O)COc4ccc(Cl)cc4)ccc3n2C)CC1 :: -60.7

q: Fill blank: measured hERG current change (%, negative = inhibition) at 1uM of the compound `CCOC(=O)C1=C(C)NC(C)=C(C(=O)OCC)C1c1ccc(Br)o1` is ____.
a: 9.3

q: Fill blank: measured hERG current change (%, negative = inhibition) at 1uM of the compound `CCOC(=O)NCc1ccccc1` is ____.
a: -5.01

q: Fill blank: measured hERG current change (%, negative = inhibition) at 1uM of the compound `O=C(NCc1ccco1)c1ccc2c(=O)n(Cc3ccco3)c(SCC(=O)N3CCCC3)nc2c1` is ____.
a: -66.9

q: Fill blank: measured hERG current change (%, negative = inhibition) at 1uM of the compound `CC1CCN(CCc2nc3cc(NC(=O)COc4ccc([N+](=O)[O-])cc4)ccc3n2C)CC1` is ____.
a: -2.45

q: Fill blank: measured hERG current change (%, negative = inhibition) at 1uM of the compound O=C(NCC1CCCO1)c1ccc2c(=O)n(CC3CCCO3)c(SCC(=O)N3CCCC3)nc2c1 (stereo not drawn) is ____.
a: 5.44

q: Fill blank: measured hERG current change (%, negative = inhibition) at 1uM of the compound `Cc1ccc(OCC(=O)Nc2ccc3c(c2)nc(CCN2CCC(C)CC2)n3C)cc1` is ____.
a: -53.3

q: Fill blank: measured hERG current change (%, negative = inhibition) at 1uM of the compound `CC1CCN(CCc2nc3cc(NC(=O)COc4ccccc4)ccc3n2C)CC1` is ____.
a: -33.9

q: Fill blank: measured hERG current change (%, negative = inhibition) at 1uM of the compound `Cn1c(CCN2CCOCC2)nc2cc(NC(=O)COc3ccc(Cl)cc3)ccc21` is ____.
a: 2

---

Catalogue of compounds with associated hERG current change (%, negative = inhibition) at 1uM
- experimental target: human ether-à-go-go-related gene (hERG) potassium channel (human, UniProt Q12809)
- Sequence (Q12809 whole entry, looked up): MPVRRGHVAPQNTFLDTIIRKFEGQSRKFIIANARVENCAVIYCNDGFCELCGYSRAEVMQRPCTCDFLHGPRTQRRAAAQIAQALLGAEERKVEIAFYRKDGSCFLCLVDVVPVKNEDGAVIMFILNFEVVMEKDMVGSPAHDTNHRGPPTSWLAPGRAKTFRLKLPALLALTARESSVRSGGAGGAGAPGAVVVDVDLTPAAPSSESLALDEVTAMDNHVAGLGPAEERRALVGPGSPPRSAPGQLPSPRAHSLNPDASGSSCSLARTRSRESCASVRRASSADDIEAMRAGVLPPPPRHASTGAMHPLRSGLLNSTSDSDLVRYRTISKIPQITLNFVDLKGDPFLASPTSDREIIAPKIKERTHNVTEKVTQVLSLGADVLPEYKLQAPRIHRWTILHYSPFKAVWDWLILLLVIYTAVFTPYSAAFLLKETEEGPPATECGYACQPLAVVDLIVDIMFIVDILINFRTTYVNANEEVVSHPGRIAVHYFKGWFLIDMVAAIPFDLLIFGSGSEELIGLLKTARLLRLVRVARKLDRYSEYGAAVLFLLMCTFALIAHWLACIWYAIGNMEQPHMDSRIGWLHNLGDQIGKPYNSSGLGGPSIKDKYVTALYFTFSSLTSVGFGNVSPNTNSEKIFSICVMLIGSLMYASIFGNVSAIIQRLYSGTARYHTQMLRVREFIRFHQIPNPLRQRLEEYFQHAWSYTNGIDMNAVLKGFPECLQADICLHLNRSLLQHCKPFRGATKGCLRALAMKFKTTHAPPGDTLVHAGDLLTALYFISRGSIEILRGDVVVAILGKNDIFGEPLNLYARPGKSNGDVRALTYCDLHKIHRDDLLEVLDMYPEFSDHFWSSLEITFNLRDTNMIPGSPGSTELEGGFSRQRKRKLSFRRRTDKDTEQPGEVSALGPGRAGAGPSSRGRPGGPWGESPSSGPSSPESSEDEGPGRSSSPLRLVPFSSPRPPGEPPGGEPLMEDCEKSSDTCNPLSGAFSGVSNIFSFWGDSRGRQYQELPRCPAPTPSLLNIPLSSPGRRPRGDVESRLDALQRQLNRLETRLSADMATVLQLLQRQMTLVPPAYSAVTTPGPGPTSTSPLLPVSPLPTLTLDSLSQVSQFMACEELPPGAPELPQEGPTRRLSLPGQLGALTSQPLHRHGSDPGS
- experiment notes: primary screen, population patch clamp on CHO cells stably expressing hERG; higher = less effect of the substance
About 2,200 (0.71%) of roughly 310,000 compounds showed an effect of 50% or more. Effects have a minus sign here. The sample holds strong results, similar compounds and a random draw of the others, so the mix is not that of the screen.
Only the number, expressed in %, is required.

Would you please look over these solved cases?
C/C=C\C(=O)Nc1cccc(C2=NOC3(C2)C[C@@H](C(N)=O)N(C(=O)c2ccccc2)C3)c1 (stereo partly drawn) :: 11.6
Cc1ccc2c(c1)nnn2C1CCN(CC(=O)N2CCN(c3ccc(F)cc3)CC2)CC1 :: -52.5
Cc1ccc2c(c1)nnn2C1CCN(CC(=O)c2ccc(Cl)cc2)CC1 :: -6.32

q: Fill blank: measured hERG current change (%, negative = inhibition) at 1uM of the compound COc1ccccc1CN1CCNC(=O)C1CC(=O)N(C)Cc1nc(C)cs1 (stereo not drawn) is ____.
a: 17.2

q: Fill blank: measured hERG current change (%, negative = inhibition) at 1uM of the compound `CCCN(c1ccc(OCC)cc1)S(=O)(=O)c1ccc2c(c1)CCN2C(=O)CCC(=O)O` is ____.
a: 12.5

---

- experimental target: human ether-à-go-go-related gene (hERG) potassium channel (human)
- experiment notes: primary screen, population patch clamp on CHO cells stably expressing hERG; higher = less effect of the substance
In all, about 310,000 compounds went through this assay and about 2,200 (0.71%) showed an effect of 50% or more. The effect is printed as a negative number. For the sample, strong results were picked, then their nearest neighbours and some compounds at random.
readout type: hERG current change (%, negative = inhibition) at 1uM
Kindly format the answer as number then unit.

Would you please look over these solved cases?
COc1ccc(C2c3ccc(O)cc3Oc3ncn(Cc4ccco4)c(=N)c32)cc1OC (centres unmarked) :: -75.9%
COc1ccc(C2c3ccc(O)cc3Oc3ncn4nc(-c5ccncc5)nc4c32)cc1OC (centres unmarked) :: -0.788%
COc1ccc(C2c3ccc(O)cc3Oc3ncn4nc(-c5ccccn5)nc4c32)cc1 (centres unmarked) :: 18.3%
N=c1c2c(ncn1Cc1ccco1)Oc1c(ccc3ccccc13)C2c1ccccc1 (centres unmarked) :: 1.59%

q: Fill blank: measured hERG current change (%, negative = inhibition) at 1uM of the molecule `CC(C)CC(=O)Nc1nnc(S(=O)(=O)N(C)Cc2ccco2)s1` is ____.
a: 21%

---

- experimental target: human ether-à-go-go-related gene (hERG) potassium channel (human, UniProt Q12809)
- experiment notes: primary screen, population patch clamp on CHO cells stably expressing hERG; higher = less effect of the substance
Screen size: about 310,000 compounds; about 2,200 (0.71%) showed an effect of 50% or more. The effect is printed as a negative number. The list comes from a sample in which strong results are over-represented; it also holds close analogues and randomly drawn compounds.
Catalogue of compounds with associated hERG current change (%, negative = inhibition) at 1uM
Only the number, expressed in %, is required.

CCOCc1c(C(=O)NCc2ccccc2CN2CCCC2)oc2ccccc12 :: -60.1

q: Fill blank: measured hERG current change (%, negative = inhibition) at 1uM of the compound CC(Nc1nc(N2CCN(CCO)CC2)nc2ccccc12)c1ccccc1 (stereo not shown) is ____.
a: -25.9

q: Fill blank: measured hERG current change (%, negative = inhibition) at 1uM of the compound CC(Nc1nc(N2CCCCC2)nc2ccccc12)c1ccccc1 (stereo not shown) is ____.
a: -14.4

q: Fill blank: measured hERG current change (%, negative = inhibition) at 1uM of the compound CC(Nc1nc(N2CCCC2)nc2ccccc12)c1ccccc1 (stereo not shown) is ____.
a: -84.6

q: Fill blank: measured hERG current change (%, negative = inhibition) at 1uM of the compound CC(Nc1nc(N2CCNCC2)nc2ccccc12)c1ccccc1 (stereo not shown) is ____.
a: -31.7
